A collection of compounds and their measured half-life
- measurement.description: In vivo half-life after single i.v. administration, mice
- condition: female, Swiss CD1, mouse, plasma, iv, 10 mg/kg
readout.label: half-life (h)

1. CCCCCCCCCCCCCCNC(=O)NC(CC(=O)O)C(=O)NC1C(=O)N2CCCCC2C(=O)NC(C(C)C(=O)O)C(=O)NC(CC(=O)O)C(=O)NCC(=O)NC(CC(=O)O)C(=O)NCC(=O)NC(C(C)N)C(=O)NC(C(C)C)C(=O)N2CCCC2C(=O)NC1C (centres unmarked) :: 5.15
2. CCCCCCCCCCCCCCC(=O)NC(CC(=O)O)C(=O)NC1C(=O)N2CCCCC2C(=O)NC(C(C)C(=O)O)C(=O)NC(CC(=O)O)C(=O)NCC(=O)NC(CC(=O)O)C(=O)NCC(=O)NC(C(C)NC(=O)CCN)C(=O)NC(C(C)C)C(=O)N2CCCC2C(=O)NC1C (centres unmarked) :: 8.02
3. CCCCCCCCCCCCC(=O)NC(CC(=O)O)C(=O)NC1C(=O)N2CCCCC2C(=O)NC(C(C)C(=O)O)C(=O)NC(CC(=O)O)C(=O)NCC(=O)NC(CC(=O)O)C(=O)NCC(=O)NC(C(C)NC(=O)CNC(=O)[C@@H](N)CCCCN)C(=O)NC(C(C)C)C(=O)N2CCCC2C(=O)NC1C (some centres unmarked) :: 0.198
4. CCCCCCCCCCCCCCC(=O)NC(CC(=O)O)C(=O)NC1C(=O)N2CCCCC2C(=O)NC(C(C)C(=O)O)C(=O)NC(CC(=O)O)C(=O)NCC(=O)NC(CC(=O)O)C(=O)NCC(=O)NC(C(C)NC(=O)CNC(=O)[C@@H](N)CCCCN)C(=O)NC(C(C)C)C(=O)N2CCCC2C(=O)NC1C (some centres unmarked) :: 0.752
5. CCCCCCCCCCCCCCNC(=O)NC(CC(=O)O)C(=O)NC1C(=O)N2CCCCC2C(=O)NC(C(C)C(=O)O)C(=O)NC(CC(=O)O)C(=O)NCC(=O)NC(CC(=O)O)C(=O)NCC(=O)NC(C(C)NC(=O)CCN)C(=O)NC(C(C)C)C(=O)N2CCCC2C(=O)NC1C (centres unmarked) :: 7.45
6. CCCCCCCCCCCCCCC(=O)NC(CC(=O)O)C(=O)NC1C(=O)N2CCCCC2C(=O)NC(C(C)C(=O)O)C(=O)NC(CC(=O)O)C(=O)NCC(=O)NC(CC(=O)O)C(=O)NCC(=O)NC(C(C)NC(=O)CN)C(=O)NC(C(C)C)C(=O)N2CCCC2C(=O)NC1C (centres unmarked) :: 6.65
7. CCCCCCCCCCCCCC(=O)NC(CC(=O)O)C(=O)NC1C(=O)N2CCCCC2C(=O)NC(C(C)C(=O)O)C(=O)NC(CC(=O)O)C(=O)NCC(=O)NC(CC(=O)O)C(=O)NCC(=O)NC(C(C)NC(=O)CNC)C(=O)NC(C(C)C)C(=O)N2CCCC2C(=O)NC1C (centres unmarked) :: 4.13
8. CCCCCCCCCCCCCCC(=O)NC(CC(=O)O)C(=O)NC1C(=O)N2CCCCC2C(=O)NC(C(C)C(=O)O)C(=O)NC(CC(=O)O)C(=O)NCC(=O)NC(CC(=O)O)C(=O)NCC(=O)NC(C(C)NC(=O)CN(C)C(=O)[C@@H](N)CCCCN)C(=O)NC(C(C)C)C(=O)N2CCCC2C(=O)NC1C (some centres unmarked) :: 6.18
